# credit: patent EP4786492A1

# MEASURED_TARGET: human DLL3 protein expressed on CHO-K1 recombinant cells (human DLL3 extracellular segment fused to EpCAM transmembrane and intracellular regions) (human) (UniProt Q9NYJ7)
# Sequence (Q9NYJ7 other isoform, or with tags, fused parts or gaps limits assumed): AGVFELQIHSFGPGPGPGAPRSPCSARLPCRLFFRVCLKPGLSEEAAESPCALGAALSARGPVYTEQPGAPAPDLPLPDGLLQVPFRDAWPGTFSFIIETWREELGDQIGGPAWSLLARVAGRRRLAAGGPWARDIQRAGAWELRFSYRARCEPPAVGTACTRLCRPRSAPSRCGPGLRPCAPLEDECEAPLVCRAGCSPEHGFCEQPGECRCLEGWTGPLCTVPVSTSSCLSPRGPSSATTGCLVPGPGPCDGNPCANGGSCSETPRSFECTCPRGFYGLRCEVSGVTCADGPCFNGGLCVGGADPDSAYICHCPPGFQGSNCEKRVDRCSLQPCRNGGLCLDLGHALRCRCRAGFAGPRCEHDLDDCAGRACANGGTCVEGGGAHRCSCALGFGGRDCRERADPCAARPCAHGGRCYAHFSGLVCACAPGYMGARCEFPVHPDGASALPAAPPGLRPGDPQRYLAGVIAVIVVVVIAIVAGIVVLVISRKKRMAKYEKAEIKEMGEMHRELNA
# METHOD_SUMMARY: FACS, CHO-K1 hDLL3 cells, 4 nM antibody
EXPERIMENTAL_READOUT: MFI (MFI)
Field format: number, assumed MFI, no unit text.

{"BINDER": "Hab009VL3aVH1-hFc (Fc fusion, part only; not given: Linker and human IgG1 Fc, not shown: a dimerising Fc or GST) chain, part: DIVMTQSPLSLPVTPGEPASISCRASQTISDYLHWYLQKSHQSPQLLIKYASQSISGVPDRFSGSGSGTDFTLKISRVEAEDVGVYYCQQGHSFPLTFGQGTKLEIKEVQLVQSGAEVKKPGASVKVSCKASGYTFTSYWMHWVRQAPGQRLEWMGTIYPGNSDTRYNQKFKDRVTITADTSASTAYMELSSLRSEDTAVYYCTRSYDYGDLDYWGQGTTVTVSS", "MFI [MFI]": 12800}

input: What MFI value was documented for this binder, Hab008L3H2a-hFc (scFv, part only; not given: VL-VH linker and human IgG1 Fc, V domains shown, not shown: another chain or arm of the molecule; a dimerising Fc or GST; small tags and cut ends) VL: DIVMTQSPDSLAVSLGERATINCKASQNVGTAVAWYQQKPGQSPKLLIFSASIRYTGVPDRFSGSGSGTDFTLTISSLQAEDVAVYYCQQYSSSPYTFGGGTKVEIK VH: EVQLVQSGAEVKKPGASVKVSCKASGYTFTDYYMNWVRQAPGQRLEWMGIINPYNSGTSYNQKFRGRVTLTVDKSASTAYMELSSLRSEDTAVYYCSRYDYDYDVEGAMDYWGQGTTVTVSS ?
output: 7190

input: What MFI value was documented for this binder, Hab008L3H5-hFc (scFv, part only; not given: scFv linker and human IgG1 Fc, V domains shown, not shown: another chain or arm of the molecule; a dimerising Fc or GST; small tags and cut ends) VL: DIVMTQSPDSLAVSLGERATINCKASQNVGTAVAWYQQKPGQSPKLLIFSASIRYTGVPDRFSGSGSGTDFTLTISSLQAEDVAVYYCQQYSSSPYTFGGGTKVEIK VH: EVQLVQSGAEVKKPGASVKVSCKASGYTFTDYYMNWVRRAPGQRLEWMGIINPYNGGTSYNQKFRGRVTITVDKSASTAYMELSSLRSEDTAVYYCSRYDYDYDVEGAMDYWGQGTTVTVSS ?
output: 7140
